Parameter Test E disease control rating: see the listing below.
- System: Plasmopara viticola
- EXPERIMENT_DESCRIPTION: Test E: preventive control of grape downy mildew on grape seedlings
- Assay type: in vivo
- TEST_PARAMETERS: sprayed day before inoculation, rate not given
Your answer is read as %, so omit the unit and give the number.

Worked set:
COMPOUND: CC(NC(=O)c1c(Br)ccnc1F)c1ncc(Cl)cc1Cl (stereo not drawn)
OUTCOME_MEASURE: Test E disease control rating
RESULT_UNIT: %
OBSERVED: 100
--
COMPOUND: O=C(NCc1ncc(Cl)cc1I)c1c(Cl)ccnc1Cl
OUTCOME_MEASURE: Test E disease control rating
RESULT_UNIT: %
OBSERVED: 100

Please examine the following record next.
Ask | Would you kindly share the measured Test E disease control rating for `O=C(NCc1ncc(Cl)cc1Cl)c1c(I)ccnc1Cl` ?
Reply | 81

Values compiled from patent US20050020643A1.
